The reported measurements were obtained from paper PMC7541927.

# measured target: α-amylase from porcine pancreas (Sus scrofa, UniProt P00690)
# Sequence (P00690 16-511): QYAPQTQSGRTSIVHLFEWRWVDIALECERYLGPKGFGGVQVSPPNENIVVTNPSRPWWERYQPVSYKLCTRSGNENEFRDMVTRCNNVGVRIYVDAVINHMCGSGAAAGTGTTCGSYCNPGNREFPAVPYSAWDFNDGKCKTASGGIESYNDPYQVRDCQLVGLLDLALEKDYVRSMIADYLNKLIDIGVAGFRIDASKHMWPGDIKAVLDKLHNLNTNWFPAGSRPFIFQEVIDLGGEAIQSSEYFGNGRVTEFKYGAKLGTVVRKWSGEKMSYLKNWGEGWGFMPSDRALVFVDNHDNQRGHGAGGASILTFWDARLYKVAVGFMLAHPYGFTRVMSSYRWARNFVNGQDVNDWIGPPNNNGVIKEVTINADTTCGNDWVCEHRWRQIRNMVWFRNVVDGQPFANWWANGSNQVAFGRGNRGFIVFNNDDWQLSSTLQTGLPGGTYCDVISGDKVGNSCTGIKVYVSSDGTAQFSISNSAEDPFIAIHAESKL
value type: IC50 (µM)
Give the value in µM but do not write µM after it.

Input: Request the reported IC50 associated with O=C(O)CC(O)(CC(=O)O)C(=O)O
Output: 640
